# reported GI80 (μg/ml) C. glabrata ATCC48435; entries follow
Tested on: C. glabrata ATCC48435
assay explanation: Antifungal activity (GI80), growth inhibition in YPD20 medium by absorbance at 600 nm
Format: cell-based
condition set: minimum concentration for at least 80% cell growth inhibition, 37° C., absorbance 600 nm
Answer format: numeric, µg/mL implied, no suffix.

(Q) Test system C. glabrata ATCC48435; read-out GI80 (μg/ml) C. glabrata ATCC48435; what value for Cc1c(-c2ccccc2)c(N2CC[C@H](N(C)C)C2)c2oc([C@@H]3C[C@H]3C(=O)N(C)C)nc2c1C#N (relative stereo) ?
(A) 0.063

(Q) Quick check: GI80 (μg/ml) C. glabrata ATCC48435 on C. glabrata ATCC48435, item CN[C@H]1CCN(c2c(-c3csc(C)n3)c(C)c(C#N)c3nc(C(=O)N(C)C)oc23)C1 [Example 158] ?
(A) 0.25

(Q) Recorded GI80 (μg/ml) C. glabrata ATCC48435 for "CNC[C@H]1CCN1c1c(-c2ccccc2)c(C)c(C#N)c2nc(C(=O)N(C)C)oc12" with C. glabrata ATCC48435, please?
(A) 0.125

(Q) Which measured GI80 (μg/ml) C. glabrata ATCC48435 belongs to "Cc1c(-c2ccccc2)c(N2CC[C@H](N(C)C)C2)c2oc(N3CCCC3=O)nc2c1C#N" , tested on C. glabrata ATCC48435?
(A) 0.063

Values compiled from patent US7737166B2.
